# Test system: CP192
# procedure-details: qHTS profiling for inhibitors of Plasmodium falciparum proliferation (AID 504749); further: nearly all actives have a fitted effect of over 60% in size
# applied-conditions: P. falciparum in erythrocytes, SYBR Green DNA, 72 h; series mostly up to 28.7 µM
Records with an inconclusive call do not appear. Active and inactive are the calls of the source. The call rests on the fitted dose curve; in most records, active means well fitted inhibition curve with a large enough effect; inconclusive means small, poorly fitted or top-dose-only effect; inactive means flat fitted curve, though single readings scatter.
measured-metric: outcome

> print(dat)
                                   molecule  recorded.value
1                     NCCNC(=O)c1ccc(Cl)cn1        inactive
2    Cc1nc(-c2ccc(Cl)cc2)oc1COC(C)(C)C(=O)O        inactive
3  CCCCC(CC)COC(=O)c1ccc(N(C)C)cc1 (centres undefined)        inactive
4         CCN(CC)CCOc1ccccc1C(=O)CCc1ccccc1        inactive
5     CCCCCN=C(N)N/N=C/c1c[nH]c2ccc(OC)cc12        inactive
6  CC1=C(C(=O)O)N2C(=O)[C@@H](NC(=O)[C@H](N)c3ccccc3)[C@H]2SC1        inactive
7  COc1ccc(CCN(C)CCCN2CCc3cc(OC)c(OC)cc3CC2=O)cc1OC        inactive
8                              CNCCc1ccccn1        inactive
9         CC(C)CCCC(C)N (centres undefined)        inactive
